Measured IC50, listed per entry for reference.
biological target: Prostaglandin E2 receptor EP3 subtype (Homo sapiens, UniProt P43115); test: Displacement of [3H]prostaglandin E2 from recombinant human full length EP3 receptor expressed in Chem-1 cell membranes after 60 mins by liquid scintillation counting
Sequence (P43115 whole entry): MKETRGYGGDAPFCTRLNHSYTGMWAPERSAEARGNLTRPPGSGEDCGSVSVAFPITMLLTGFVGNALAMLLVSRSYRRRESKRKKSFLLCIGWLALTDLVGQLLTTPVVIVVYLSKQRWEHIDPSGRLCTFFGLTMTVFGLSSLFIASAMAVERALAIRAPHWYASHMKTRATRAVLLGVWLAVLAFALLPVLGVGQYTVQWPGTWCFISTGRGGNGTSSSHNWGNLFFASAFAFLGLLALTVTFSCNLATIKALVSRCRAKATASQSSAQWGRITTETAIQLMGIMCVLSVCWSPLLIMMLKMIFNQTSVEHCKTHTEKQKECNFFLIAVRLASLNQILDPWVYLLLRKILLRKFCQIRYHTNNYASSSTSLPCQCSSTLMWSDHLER
endpoint: IC50

> print(dat)
                           molecular.string                       experimental.system  observed.result
1  O=C(O)CNc1cccc(CN(Cc2ccc(-n3cccn3)cc2)S(=O)(=O)c2cccnc2)n1  Prostaglandin E2 receptor EP3 subtype (Homo sapiens, UniProt P43115)          > 10 µM
2  CC(C)OC(=O)CNc1cccc(CN(Cc2ccc(-n3cccn3)cc2)S(=O)(=O)c2cccnc2)n1  Prostaglandin E2 receptor EP3 subtype (Homo sapiens, UniProt P43115)          > 10 µM

----------
target: UniProtKB P43116; test: Agonist activity at recombinant human EP2 receptor expressed in HEK293 cells assessed as induction of cAMP accumulation after 30 mins
Sequence (P43116 whole entry): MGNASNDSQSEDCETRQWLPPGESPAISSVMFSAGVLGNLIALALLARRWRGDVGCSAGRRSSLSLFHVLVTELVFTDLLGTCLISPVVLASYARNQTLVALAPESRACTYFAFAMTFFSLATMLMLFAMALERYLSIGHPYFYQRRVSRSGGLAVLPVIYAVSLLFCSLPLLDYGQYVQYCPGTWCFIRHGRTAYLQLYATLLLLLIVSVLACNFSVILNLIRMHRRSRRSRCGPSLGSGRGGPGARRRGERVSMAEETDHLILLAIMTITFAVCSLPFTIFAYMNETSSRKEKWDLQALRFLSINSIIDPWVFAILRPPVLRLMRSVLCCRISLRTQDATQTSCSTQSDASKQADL
Field: label. Allowed values: 1.0 (EC50 < 40 nM) or 0.0 (EC50 >= 40 nM).

> print(dat)
                                    compound  assigned.class
 1  O=C(O)CNc1cccc(CN(Cc2ccc(-c3ccc(F)cc3)cc2)S(=O)(=O)c2cccnc2)n1             1.0
 2  CC(C)C1(c2ccc(CN(Cc3cccc(NCC(=O)O)n3)S(=O)(=O)c3cccnc3)cc2)CC1             1.0
 3  CC(C)(C)c1ccc(CN(Cc2cc(NCC(=O)O)ccn2)S(=O)(=O)c2cccnc2)cc1             0.0
 4  CC(C)(C)C1CCC(CN(Cc2cccc(NCC(=O)O)n2)S(=O)(=O)c2cccnc2)CC1 (stereo not drawn)             0.0
 5  COc1ccc(S(=O)(=O)N(Cc2ccc(C(C)(C)C)cc2)Cc2cccc(NCC(=O)O)n2)cc1             1.0
 6  O=C(O)CNc1cccc(CN(Cc2ccc(-n3cccn3)cc2)S(=O)(=O)c2cccnc2)n1             1.0
 7  O=C(O)CNc1cccc(CN(Cc2ccc(-c3ccccn3)cc2)S(=O)(=O)c2cccnc2)n1             1.0
 8  O=C(O)CNc1cccc(CN(CCCCCc2ccccc2)S(=O)(=O)c2cccnc2)n1             0.0
 9  CC(C)(C)c1ccc(CN(Cc2csc(NCC(=O)O)n2)S(=O)(=O)c2cccnc2)cc1             0.0
10  CCC1(c2ccc(CN(Cc3cccc(NCC(=O)O)n3)S(=O)(=O)c3cccnc3)cc2)CCC1             1.0
11  CC(C)(C)c1ccc(CN(Cc2cccc(NCC(=O)O)n2)S(C)(=O)=O)cc1             0.0
12  O=C(O)CNc1cccc(CN(Cc2ccc(-n3cncn3)cc2)S(=O)(=O)c2cccnc2)n1             0.0
13  CC(C)(C)c1ccc(CN(Cc2ccc3ccn(CC(=O)O)c3c2)S(=O)(=O)c2cccnc2)cc1             0.0
14  O=C(O)CNc1cccc(CN(Cc2ccc(-c3ccc(Cl)cc3)cc2)S(=O)(=O)c2cccnc2)n1             0.0
15  CC(C)(C)c1ccc(CN(Cc2cccc(NCC(=O)O)n2)S(=O)(=O)c2cccc(Cl)c2)cc1             0.0
16  O=C(O)CNc1cccc(CN(Cc2ccc(C3CCCCC3)cc2)S(=O)(=O)c2cccnc2)n1             1.0
17  CC(C)(C)c1ccc(CN(Cc2cccc(NCC(=O)O)n2)S(=O)(=O)c2ccccc2Cl)cc1             0.0
18  CC(C)(C)c1ccc(CN(Cc2cccc(NCCC(=O)O)n2)S(=O)(=O)c2cccnc2)cc1             0.0

All values here come from ChEMBL document CHEMBL4325826.
